Where these numbers come from: PubChem BioAssay (NCI)

# key: entry, value: growth inhibition
assay: NCI Yeast Anticancer Drug Screen. Data for the mlh1 rad18 strain (AID 175); conditions: S. cerevisiae mlh1 rad18 strain growth inhibition; at 50.0 µM (retest, dose inferred, filed as 5.0); stronger effect = higher value
This is part of a sample that, as a whole, favours compounds with a hit. Of some 79,000 tested, about 15% had one in any assay.
Readout Type: growth inhibition (%)

{"Compound": "CCN(CC)CCC(=O)c1ccc2c3c(n(C)c2c1)CCCC3", "Unit Abbrev": "%", "Value Observed": 21}
{"Compound": "CCN(CC)c1ccc(N=Nc2ccc(Br)cn2)c(O)c1", "Unit Abbrev": "%", "Value Observed": 77}
{"Compound": "COc1ccc2nc3cccc([N+](=O)[O-])c3c(NCCN(C)C)c2c1", "Unit Abbrev": "%", "Value Observed": 97}
{"Compound": "O=C1NC(=O)C(Cc2ccccc2)(Cc2ccccc2)S1", "Unit Abbrev": "%", "Value Observed": 99}
{"Compound": "CN(Cc1cnc2nc(N)nc(N)c2n1)c1ccc(C(=O)NC(CCC(=O)O)C(=O)O)c(Cl)c1Cl (configuration not stated)", "Unit Abbrev": "%", "Value Observed": 82}
{"Compound": "CCCOC1(C)CC(c2cc(OC)c(OC)c(OC)c2)c2cc3c(cc2O1)OCO3 (configuration not stated)", "Unit Abbrev": "%", "Value Observed": 99}
{"Compound": "O=C(CCN1CCN(c2cccc(Cl)c2)CC1)N1CCc2c([nH]c3ccccc23)C1c1cccnc1 (configuration not stated)", "Unit Abbrev": "%", "Value Observed": 23}
{"Compound": "CC1=C(C(=O)Nc2ccccc2)C(c2cccc3ccccc23)C(C(=O)Nc2ccccc2)=C(C)N1", "Unit Abbrev": "%", "Value Observed": 53}
{"Compound": "O=S(=O)(OCC#CCOS(=O)(=O)c1ccc(Cl)c(Cl)c1)c1ccc(Cl)c(Cl)c1", "Unit Abbrev": "%", "Value Observed": 37}
{"Compound": "CC1(C)OC2C(CO)OC(n3ncc(=S)[nH]c3=O)C2O1 (configuration not stated)", "Unit Abbrev": "%", "Value Observed": 30}
{"Compound": "CCC(=O)C(CCN(CC)CC)(CCN(CC)CC)c1ccccc1", "Unit Abbrev": "%", "Value Observed": -7}
{"Compound": "C/C(=N/NC(=S)Nc1ccc([N+](=O)[O-])cc1)c1cccc(/C(C)=N\\NC(=S)Nc2ccc([N+](=O)[O-])cc2)n1", "Unit Abbrev": "%", "Value Observed": 61}
{"Compound": "O=C1C(Cl)=C(c2ccccc2)C1Cl (configuration not stated)", "Unit Abbrev": "%", "Value Observed": 99}
{"Compound": "O=[N+]([O-])c1ccc(CC(c2ccc([N+](=O)[O-])cc2)(c2ccc([N+](=O)[O-])cc2)c2ccc([N+](=O)[O-])cc2)cc1", "Unit Abbrev": "%", "Value Observed": 1}
{"Compound": "O=S(=O)(Nc1ccccc1Cl)c1ccccc1", "Unit Abbrev": "%", "Value Observed": 84}
{"Compound": "O=[N+]([O-])c1ccccc1N=Nc1c(O)[nH]c2ccc(S(=O)(=O)O)cc12", "Unit Abbrev": "%", "Value Observed": 98}
{"Compound": "CN(C)C1=C(Cl)C(=O)c2ccccc2C1=O", "Unit Abbrev": "%", "Value Observed": 87}
{"Compound": "CCOC(=O)Nc1cc2c(c(N)n1)N=C(c1ccccc1)CN2", "Unit Abbrev": "%", "Value Observed": 52}
{"Compound": "CC(Cc1ccccc1)N1C(=O)C=CC1=O (configuration not stated)", "Unit Abbrev": "%", "Value Observed": 98}
{"Compound": "CC(C)/C=C1\\CCC(CN2CCOCC2)C1=O (configuration not stated)", "Unit Abbrev": "%", "Value Observed": 71}
{"Compound": "CCOC(=O)c1sc(N/N=C2\\NC(=O)/C(=C/c3ccc([N+](=O)[O-])cc3)S2)nc1C", "Unit Abbrev": "%", "Value Observed": 92}
{"Compound": "Cc1c(C(=O)O)nc(C(Br)(Br)Br)[nH]c1=O", "Unit Abbrev": "%", "Value Observed": 27}
